assay.comment: photoluminescence quantum yield (fraction); solvent given as SMILES
measurement.setup: in CS(C)=O
// NB: equality with 0.2 counts as false; only photoluminescence quantum yield strictly below is true

Input: Quick check: photoluminescence quantum yield of COc1cc2sc3nc(-c4ccccc4OC)sc3c2cc1OC under 0.2?
Output: false

Input: Input C#CCN1C(=O)/C(=C/c2cc(OC(C)C)ccc2OC(C)C)N=C1C ; condition: photoluminescence quantum yield strictly below 0.2. Does it hold?
Output: true

Input: Bench note: check whether CC(=O)c1c2c(cc3c(N(C)C)cccc13)CCC2 shows photoluminescence quantum yield below 0.2
Output: false

Input: photoluminescence quantum yield under 0.2? Item: Cn1c2ccc(S(=O)(=O)Cl)cc2c(=O)c2cc(S(=O)(=O)Cl)ccc21
Output: false

Input: photoluminescence quantum yield under 0.2? Item: CCC1=C(C)C2=C(c3c(C)cc(C)nc3-c3cccs3)c3c(C)c(CC)c(C)n3[B-](F)(F)[N+]2=C1C
Output: false

Input: is_below(photoluminescence quantum yield, 0.2) for F[B-]1(F)n2c(-c3cccs3)cc(-c3cccs3)c2N=C2C(c3cccs3)=CC(c3cccs3)=[N+]21 ?
Output: true

Input: API: query returns whether the compound falls strictly under 0.2 in photoluminescence quantum yield. Query: O=C1/C(=C/C=C/c2cc3c4c(c2)CCCN4CCC3)CC/C1=C\C=C\c1cc2c3c(c1)CCCN3CCC2
Output: true

Input: I'd appreciate it if you could check whether COc1ccc(C2C3=C(CCCC3=O)Nc3c2c(=O)oc2ccccc32)cc1 (stereo not given) has photoluminescence quantum yield smaller than 0.2.
Output: false

Input: Identify whether the compound c1ccc(-c2nc3sc4ccccc4c3s2)nc1 records photoluminescence quantum yield below 0.2.
Output: false

Input: Please let me know if CCN(CC)c1ccc2cc(/C=C/C3=C4CC/C(=C\c5cc6ccc(N(CC)CC)cc6oc5=O)C4=[O+][B-](F)(F)O3)c(=O)oc2c1 shows photoluminescence quantum yield below 0.2.
Output: true

Input: Report whether reported photoluminescence quantum yield is lower than 0.2 (strictly) for CCCCCCCCN1c2ccc(C#Cc3ccc(OC)cc3)cc2Sc2cc(C=O)ccc21
Output: false

Input: Please indicate whether the reported photoluminescence quantum yield of C#CCNC1=C2C=CC=[N+]2[B-](F)(F)n2cccc21 is strictly below 0.2.
Output: false

Input: Is photoluminescence quantum yield of O=Cc1cc(C=O)c2ccc3c(N4CCCCC4)cc(N4CCCCC4)c4ccc1c2c43 strictly below 0.2?
Output: false

Input: Does the reported photoluminescence quantum yield of C[N+]1=C(/C=C/C=C2/N(CCC[N+](C)(C)C)c3ccccc3C2(C)C)C(C)(C)c2ccccc21 stay below 0.2?
Output: true

Input: Consider the compound Fc1ccccc1-c1nc2sc3ccccc3c2s1 . Is its photoluminescence quantum yield strictly less than 0.2?
Output: false

Input: Threshold test, photoluminescence quantum yield < 0.2: CCC1=C(C)C(=O)n2c1cc1c(C)c(CC(=O)O)c(C)n1c2=O
Output: false

Input: Just wondering, is photoluminescence quantum yield of CC(C)[Si]1(C(C)C)c2cc(N(C)C)ccc2-c2ccc(C(F)(F)F)cc21 below 0.2?
Output: true

Input: Is 0.2 strictly greater than the compound's reported photoluminescence quantum yield? compound: COc1ccc(-c2nc3ccccc3nc2/C=C/N2CCCC2)s1
Output: true

Input: Report whether reported photoluminescence quantum yield is lower than 0.2 (strictly) for O=C1/C(=C2\Sc3ccc(S(=O)(=O)Nc4ccccc4)cc3C2=O)Sc2ccc(S(=O)(=O)Nc3ccccc3)cc21
Output: true

Input: Please determine if COC(=O)c1cc(=O)n(C)c2cc(-c3ccc(OC)cc3)sc12 is below 0.2 in terms of photoluminescence quantum yield.
Output: false

Input: photoluminescence quantum yield strictly < 0.2 for this compound? CCC1=C(C)C(=O)n2c1cc1c(CCC(=O)O)c(C)c(C)n1c2=O
Output: false

Input: Consider the compound O=c1oc2ccccc2cc1-c1nc2ccccc2o1 . Is its photoluminescence quantum yield strictly less than 0.2?
Output: false

Input: State whether 0.2 exceeds photoluminescence quantum yield recorded for Cc1ccc(-n2c3ccccc3c3cc(C(=C(C#N)C#N)c4ccccc4)ccc32)cc1 .
Output: true

Input: Dear reviewer, please state whether CCC/N=C/c1cc2ccc(N(C)C)cc2cc1OC has photoluminescence quantum yield strictly beneath 0.2.
Output: false

Input: Problem: For the compound COC(=O)c1ccc(C#Cc2ccc(N(C)C)cc2)cc1 , is photoluminescence quantum yield under 0.2?
Output: true

Input: Determine if CCCCN1c2ccccc2Sc2cc(/C=C/c3nc4nc5ccccc5nc4s3)ccc21 shows photoluminescence quantum yield strictly lower than 0.2.
Output: true

Input: Hello, I'm reviewing records and need to know if photoluminescence quantum yield of CCN(CC)c1ccc2c(c1)oc(=O)c1c(=O)oc3c(C)c4oc(=O)c5c(=O)oc6cc(N(CC)CC)ccc6c5c4cc3c12 is below 0.2. Could you check?
Output: true

Input: Is photoluminescence quantum yield strictly under 0.2 for the entry O=C1c2ccccc2C2=Cc3ccccc3B(O)N12 ?
Output: true

Input: Quick check: photoluminescence quantum yield of CC1=[N+]2C(=C(c3c4ccccc4cc4ccccc34)c3ccc(C)n3[B-]2(F)F)C=C1 under 0.2?
Output: true

Input: Lab note: confirm whether the reported photoluminescence quantum yield for this compound is below 0.2, equality not counting. compound: CCOC(=O)CN1C(=O)C2=C(c3ccc(C#N)cc3)N(CC(=O)OCC)C(=O)C2=C1c1ccc(C#N)cc1
Output: false

Input: Consider the compound CCN(CC)c1ccc2cc(/C=C/c3cccc[n+]3CCCS(=O)(=O)[O-])c(=O)oc2c1 . Is its photoluminescence quantum yield strictly less than 0.2?
Output: true

Input: Decide: photoluminescence quantum yield of CCC(=O)c1ccc2cc(N(C)C)ccc2c1 strictly below 0.2?
Output: false

Input: Please check: photoluminescence quantum yield for CCN(CC)c1ccc2cc(/C=C(\C#N)c3nc4ccccc4o3)c(=O)oc2c1 , strictly under 0.2 or not?
Output: true

Input: # TODO verify photoluminescence quantum yield < 0.2 strictly for this compound: C#CCn1c2ccccc2c2cc(/C=C/C3=[N+]4C(=C(c5ccc(I)cc5)c5c(C)c(Cl)c(/C=C/c6ccc7c(c6)c6ccccc6n7CC#C)n5[B-]4(F)F)C(C)=C3Cl)ccc21
Output: false

Input: is_below(photoluminescence quantum yield, 0.2) for CC1(C)C(/C=C/c2cc3ccc(O)cc3oc2=O)=[N+](CCCS(=O)(=O)[O-])c2ccccc21 ?
Output: true

Input: Does the reported photoluminescence quantum yield of the following compound sit strictly below 0.2? N#Cc1cc2ccccc2oc1=N
Output: true

Input: Decide: photoluminescence quantum yield of CCOC(=O)c1sc(SC)c2c(=O)[nH]nnc12 strictly below 0.2?
Output: true

Input: Given Cc1ccc(-n2c(-c3ccccc3O)nc(-c3ccccc3O)c2-c2ccccc2O)cc1 , is recorded photoluminescence quantum yield strictly lower than 0.2?
Output: false
